system: NCI-H1975; test: relative viability (nuclei count vs DMSO), 5 days (fraction); higher = more cells survive; conditions: first compound 0.1265 µM
Label YES when relative viability is strictly below 0.8; otherwise label NO.

[[record]]
compound = "Clc1ccc(Nc2nnc(Cc3ccncc3)c3ccccc23)cc1 [Vatalanib] + COc1cc2c(Oc3ccc(NC(=O)C4(C(=O)Nc5ccc(F)cc5)CC4)cc3F)ccnc2cc1OCCCN1CCOCC1 [Foretinib] (partner 0.25 µM)"
class = "NO"

[[record]]
compound = "Clc1ccc(Nc2nnc(Cc3ccncc3)c3ccccc23)cc1 [Vatalanib] + CC(=O)c1c(C)c2cnc(Nc3ccc(N4CCNCC4)cn3)nc2n(C2CCCC2)c1=O [Palbociclib] (partner 0.5 µM)"
class = "YES"

[[record]]
compound = "Clc1ccc(Nc2nnc(Cc3ccncc3)c3ccccc23)cc1 [Vatalanib] + O=C(c1cc(Cc2n[nH]c(=O)c3ccccc23)ccc1F)N1CCN(C(=O)C2CC2)CC1 [Olaparib] (partner 8 µM)"
class = "YES"


Let's switch to this compound now.
Item Clc1ccc(Nc2nnc(Cc3ccncc3)c3ccccc23)cc1 [Vatalanib] + C[C@@H](Oc1cc(-c2cnn(C3CCNCC3)c2)cnc1N)c1c(Cl)ccc(F)c1Cl [Crizotinib] (partner 1 µM) : relative viability beneath 0.8, strictly?
NO

----------
system: NCI-H2085; assay: relative viability (nuclei count vs DMSO), 5 days (fraction); higher = more cells survive; conditions: first compound 0.04 µM
Measurement name: relative viability
// no unit, no text: just the number

Recorded results for 3 molecules are shown here.
[[record]]
molecule = "C[C@@H]1CN(CC(=O)Nc2ccc3c(c2)Cc2cccc(-c4cc(=O)cc(N5CCOCC5)o4)c2S3)C[C@H](C)O1 + CS(=O)(=O)N1CCN(Cc2cc3nc(-c4cccc5[nH]ncc45)nc(N4CCOCC4)c3s2)CC1 [Pictilisib] (partner 1 µM)"
measurement_name = "relative viability"
val = 0.476

[[record]]
molecule = "COc1cc(N2CCC(C(N)=O)CC2)ccc1Nc1nc(N)c(Cl)c(Nc2ccccc2S(=O)(=O)C(C)C)n1 [HG-5-88-01] + CC(=O)Nc1cccc(-n2c(=O)n(C3CC3)c(=O)c3c(Nc4ccc(I)cc4F)n(C)c(=O)c(C)c32)c1 [Trametinib] (partner 0.02 µM)"
measurement_name = "relative viability"
val = 0.613

[[record]]
molecule = "Clc1ccc(Nc2nnc(Cc3ccncc3)c3ccccc23)cc1 [Vatalanib] + N=C(N)NC(=N)NCCc1ccccc1 [Phenformin] (partner 250 µM)"
measurement_name = "relative viability"
val = 0.701


Turning to the following molecule.
Any idea what its relative viability is? The molecule is Clc1ccc(Nc2nnc(Cc3ccncc3)c3ccccc23)cc1 [Vatalanib] + CC(=O)Nc1cccc(-n2c(=O)n(C3CC3)c(=O)c3c(Nc4ccc(I)cc4F)n(C)c(=O)c(C)c32)c1 [Trametinib] (partner 0.02 µM)
0.516

----------
tested on: LK-2; test: relative viability (nuclei count vs DMSO), 5 days (fraction); higher = more cells survive; details: first compound 0.3162 µM
Measurement name: relative viability
Just the number.

[[record]]
compound = "CC(C)Oc1cc(Nc2nc(N[C@@H](C)c3ccc(F)cn3)ncc2Cl)n[nH]1 [AZ23] + CC(=O)Nc1cccc(-n2c(=O)n(C3CC3)c(=O)c3c(Nc4ccc(I)cc4F)n(C)c(=O)c(C)c32)c1 [Trametinib] (partner 0.02 µM)"
assay_target = "LK-2"
measurement_name = "relative viability"
val = 0.681


# relative viability lookup, item CC(C)Oc1cc(Nc2nc(N[C@@H](C)c3ccc(F)cn3)ncc2Cl)n[nH]1 [AZ23] + O=C(c1cc(Cc2n[nH]c(=O)c3ccccc23)ccc1F)N1CCN(C(=O)C2CC2)CC1 [Olaparib] (partner 8 µM)
0.68

May I ask what relative viability has been recorded for CC(C)Oc1cc(Nc2nc(N[C@@H](C)c3ccc(F)cn3)ncc2Cl)n[nH]1 [AZ23] + CC(=O)c1c(C)c2cnc(Nc3ccc(N4CCNCC4)cn3)nc2n(C2CCCC2)c1=O [Palbociclib] (partner 0.5 µM) ?
0.678

What value of relative viability has been recorded for this entry: CC(C)Oc1cc(Nc2nc(N[C@@H](C)c3ccc(F)cn3)ncc2Cl)n[nH]1 [AZ23] + Nc1ncn([C@H]2C[C@H](O)[C@@H](CO)O2)c(=O)n1 [Decitabine] (partner 2 µM)
0.272

Any idea what relative viability was measured for CC(C)Oc1cc(Nc2nc(N[C@@H](C)c3ccc(F)cn3)ncc2Cl)n[nH]1 [AZ23] + CS(=O)(=O)N1CCN(Cc2cc3nc(-c4cccc5[nH]ncc45)nc(N4CCOCC4)c3s2)CC1 [Pictilisib] (partner 1 µM) ?
0.59

----------
tested on: HCC-827; assay: relative viability (nuclei count vs DMSO), 5 days (fraction); higher = more cells survive; settings: first compound 8 µM
The label Fulfilled is reserved for relative viability strictly under 0.5; Not fulfilled covers values equal to or above it.

[[record]]
molecule = "CCCCCCCCCCCC1=C(O)C(=O)C=C(O)C1=O [Embelin] + CC(=O)c1c(C)c2cnc(Nc3ccc(N4CCNCC4)cn3)nc2n(C2CCCC2)c1=O [Palbociclib] (partner 0.5 µM)"
class = "Fulfilled"

[[record]]
molecule = "CCCCCCCCCCCC1=C(O)C(=O)C=C(O)C1=O [Embelin] + CCNC(=O)c1noc(-c2cc(C(C)C)c(O)cc2O)c1-c1ccc(CN2CCOCC2)cc1 [Luminespib] (partner 0.01 µM)"
class = "Not fulfilled"

[[record]]
molecule = "CCCCCCCCCCCC1=C(O)C(=O)C=C(O)C1=O [Embelin] + COc1cccc2cc(-c3nc([C@H]4CC[C@H](C(=O)O)CC4)n4ncnc(N)c34)[nH]c12 [OSI-027] (partner 0.5 µM)"
class = "Not fulfilled"


We next turn to a different molecule, shown below.
Hello, I'm reviewing records and need to know if relative viability of CCCCCCCCCCCC1=C(O)C(=O)C=C(O)C1=O [Embelin] + CS(=O)(=O)CCNCc1ccc(-c2ccc3ncnc(Nc4ccc(OCc5cccc(F)c5)c(Cl)c4)c3c2)o1 [Lapatinib] (partner 2 µM) is below 0.5. Could you check?
Fulfilled

----------
tested on: NCI-H520; assay: relative viability (nuclei count vs DMSO), 5 days (fraction); higher = more cells survive; conditions: first compound 4 µM
Recorded relative viability by entry

[[record]]
compound = "COc1cc(N2CCC(C(N)=O)CC2)ccc1Nc1nc(N)c(Cl)c(Nc2ccccc2S(=O)(=O)C(C)C)n1 [HG-5-88-01] + CS(=O)(=O)CCNCc1ccc(-c2ccc3ncnc(Nc4ccc(OCc5cccc(F)c5)c(Cl)c4)c3c2)o1 [Lapatinib] (partner 2 µM)"
val = 0.795


Now consider the entry below.
What is its relative viability for NCI-H520? Entry: Clc1ccc(Nc2nnc(Cc3ccncc3)c3ccccc23)cc1 [Vatalanib] + CS(=O)(=O)CCNCc1ccc(-c2ccc3ncnc(Nc4ccc(OCc5cccc(F)c5)c(Cl)c4)c3c2)o1 [Lapatinib] (partner 2 µM)
0.82

----------
system: COR-L 105; experiment: relative viability (nuclei count vs DMSO), 5 days (fraction); higher = more cells survive; conditions: first compound 0.1265 µM
Measurement name: relative viability
# output: bare number, no unit

Example results:
[[record]]
compound = "COc1cc(N2CCC(C(N)=O)CC2)ccc1Nc1nc(N)c(Cl)c(Nc2ccccc2S(=O)(=O)C(C)C)n1 [HG-5-88-01] + Nc1ncn([C@H]2C[C@H](O)[C@@H](CO)O2)c(=O)n1 [Decitabine] (partner 2 µM)"
measurement_name = "relative viability"
val = 0.706

[[record]]
compound = "Clc1ccc(Nc2nnc(Cc3ccncc3)c3ccccc23)cc1 [Vatalanib] + CC(=O)c1c(C)c2cnc(Nc3ccc(N4CCNCC4)cn3)nc2n(C2CCCC2)c1=O [Palbociclib] (partner 0.5 µM)"
measurement_name = "relative viability"
val = 0.369

[[record]]
compound = "C[C@@H]1CN(CC(=O)Nc2ccc3c(c2)Cc2cccc(-c4cc(=O)cc(N5CCOCC5)o4)c2S3)C[C@H](C)O1 + CCNC(=O)c1noc(-c2cc(C(C)C)c(O)cc2O)c1-c1ccc(CN2CCOCC2)cc1 [Luminespib] (partner 0.01 µM)"
measurement_name = "relative viability"
val = 0.719

[[record]]
compound = "COc1cc(N2CCC(C(N)=O)CC2)ccc1Nc1nc(N)c(Cl)c(Nc2ccccc2S(=O)(=O)C(C)C)n1 [HG-5-88-01] + COc1cccc2cc(-c3nc([C@H]4CC[C@H](C(=O)O)CC4)n4ncnc(N)c34)[nH]c12 [OSI-027] (partner 0.5 µM)"
measurement_name = "relative viability"
val = 0.776

[[record]]
compound = "C[C@@H]1CN(CC(=O)Nc2ccc3c(c2)Cc2cccc(-c4cc(=O)cc(N5CCOCC5)o4)c2S3)C[C@H](C)O1 + COc1cc2c(Oc3ccc(NC(=O)C4(C(=O)Nc5ccc(F)cc5)CC4)cc3F)ccnc2cc1OCCCN1CCOCC1 [Foretinib] (partner 0.25 µM)"
measurement_name = "relative viability"
val = 0.971


Can you share its relative viability? I mean this compound: C[C@@H]1CN(CC(=O)Nc2ccc3c(c2)Cc2cccc(-c4cc(=O)cc(N5CCOCC5)o4)c2S3)C[C@H](C)O1 + O=C(CCCCCCC(=O)Nc1ccccc1)NO [Vorinostat] (partner 1 µM)
0.783

Tell me the measured relative viability of Clc1ccc(Nc2nnc(Cc3ccncc3)c3ccccc23)cc1 [Vatalanib] + O=C(CCCCCCC(=O)Nc1ccccc1)NO [Vorinostat] (partner 1 µM) , please.
0.806
